Procedure Summary: Inhibition of MT4 cell viability
Type: cell-based
Condition Set: human, MT4 cells
Quantity Measured: CC50 (µM)
Numbers only, in µM.

| Smiles Notation | CC50 [µM] |
| --- | --- |
| Cc1cn([C@@H]2O[C@H](CO[Si](C)(C)C(C)(C)C)[C@@]3(OS(=O)(=O)C=C3N)[C@H]2O[Si](C)(C)C(C)(C)C)c(=O)n(/C=C\CO)c1=O | 36 |
| Cc1cn([C@@H]2O[C@H](CO[Si](C)(C)C(C)(C)C)[C@@]3(OS(=O)(=O)C=C3N)[C@H]2O[Si](C)(C)C(C)(C)C)c(=O)[nH]c1=O | 14 |

// field: CC50; key: CCc1cn([C@@H]2O[C@H](CO[Si](C)(C)C(C)(C)C)[C@@]3(OS(=O)(=O)C=C3N)[C@H]2O[Si](C)(C)C(C)(C)C)c(=O)[nH]c1=O ; value = 20

====

Test system: Human immunodeficiency virus 1
Procedure Summary: Antiviral activity against HIV1 in MT4 cells
Format: functional, organism-based
Condition Set: Human immunodeficiency virus 1, MT4
I'd be grateful if you could share measured EC50 for these entries.

| Smiles Notation | EC50 |
| --- | --- |
| Cc1cn([C@@H]2O[C@H](CO[Si](C)(C)C(C)(C)C)[C@@]3(OS(=O)(=O)C=C3N)[C@H]2O[Si](C)(C)C(C)(C)C)c(=O)n(CCc2ccccc2)c1=O | 840 nM |
| Cc1cn([C@@H]2O[C@H](CO[Si](C)(C)C(C)(C)C)[C@@]3(OS(=O)(=O)C=C3N)[C@H]2O[Si](C)(C)C(C)(C)C)c(=O)n(CCCO)c1=O | 30 nM |

Now, please, on to the next molecule.
// field: EC50; key: Cc1cn([C@@H]2O[C@H](CO[Si](C)(C)C(C)(C)C)[C@@]3(OS(=O)(=O)C=C3N)[C@H]2O[Si](C)(C)C(C)(C)C)c(=O)n(CC(=O)N[C@@H](C)C(=O)O)c1=O ; value = 5700 nM

====

Procedure Summary: Inhibition of MT4 cell viability
Type: cell-based
Condition Set: human, MT4 cells
I'd be grateful if you could share measured CC50 for these entries.
Answers are plain numbers, in µM.

| Smiles Notation | CC50 / µM |
| --- | --- |
| Cc1cn([C@@H]2O[C@H](CO[Si](C)(C)C(C)(C)C)[C@@]3(OS(=O)(=O)C=C3N)[C@H]2O[Si](C)(C)C(C)(C)C)c(=O)n(CCCN)c1=O | 14 |

Now, please, on to the next compound.
// field: CC50; key: CC(C)(C)[Si](C)(C)OC[C@H]1O[C@@H](n2nncc2C(N)=O)[C@H](O[Si](C)(C)C(C)(C)C)[C@]12OS(=O)(=O)C=C2N ; value = 15

====

Procedure Summary: Inhibition of MT4 cell viability
Assay type: cell-based
Condition Set: human, MT4 cells
With a cut-off of 20 µM, any CC50 strictly below it is called condition met; any CC50 meeting it or above is called condition not met.

| Compound | Answer Label |
| --- | --- |
| Cc1cn([C@@H]2O[C@H](CO[Si](C)(C)C(C)(C)C)[C@@]3(OS(=O)(=O)C=C3N)[C@H]2O[Si](C)(C)C(C)(C)C)c(=O)n(CC2CO2)c1=O (some centres not stated) | condition not met |
| Cc1cn([C@@H]2O[C@H](CO[Si](C)(C)C(C)(C)C)[C@@]3(OS(=O)(=O)C=C3N)[C@H]2O[Si](C)(C)C(C)(C)C)c(=O)n(/C=C/CO)c1=O | condition met |
| Cc1cn([C@@H]2O[C@H](CO[Si](C)(C)C(C)(C)C)[C@@]3(OS(=O)(=O)C=C3N)[C@H]2O[Si](C)(C)C(C)(C)C)c(=O)n(C)c1=O | condition not met |
| Cc1cn([C@@H]2O[C@H](CO[Si](C)(C)C(C)(C)C)[C@@]3(OS(=O)(=O)C=C3N=C(N)N)[C@H]2O[Si](C)(C)C(C)(C)C)c(=O)[nH]c1=O | condition not met |
| Cc1cn([C@@H]2O[C@H](CO[Si](C)(C)C(C)(C)C)[C@@H](O)[C@H]2O[Si](C)(C)C(C)(C)C)c(=O)n(CC(=O)O)c1=O | condition met |
| Cc1cn([C@@H]2O[C@H](CO[Si](C)(C)C(C)(C)C)[C@@]3(OS(=O)(=O)C(/C=C/CO)=C3N)[C@H]2O[Si](C)(C)C(C)(C)C)c(=O)[nH]c1=O | condition met |
| Cc1cn(C2OC(CO[Si](C)(C)C(C)(C)C)CC2O[Si](C)(C)C(C)(C)C)c(=O)n(CC(=O)O)c1=O (configuration not stated) | condition met |
| Cc1cn([C@@H]2O[C@H](CO[Si](C)(C)C(C)(C)C)[C@@]3(OS(=O)(=O)C=C3N)[C@H]2O[Si](C)(C)C(C)(C)C)c(=O)n(CC(=O)O)c1=O | condition not met |

For this compound, is CC50 lower than 20 µM? CN(C)C(=O)c1cnnn1[C@@H]1O[C@H](CO[Si](C)(C)C(C)(C)C)[C@@]2(OS(=O)(=O)C=C2N)[C@H]1O[Si](C)(C)C(C)(C)C
condition met

For this compound, is CC50 lower than 20 µM? Cc1cn([C@@H]2O[C@H](CO[Si](C)(C)C(C)(C)C)[C@@]3(OS(=O)(=O)C=C3N)[C@H]2O[Si](C)(C)C(C)(C)C)c(=O)n(CC(N)=O)c1=O
condition met

For this compound, is CC50 lower than 20 µM? COC(=O)C(=O)NC1=CS(=O)(=O)O[C@@]12[C@@H](COCc1ccccc1)O[C@@H](n1cc(C)c(=O)n(C)c1=O)[C@@H]2O[Si](C)(C)C(C)(C)C
condition met

For this compound, is CC50 lower than 20 µM? CNC(=O)CCCCn1c(=O)c(C)cn([C@@H]2O[C@H](CO[Si](C)(C)C(C)(C)C)[C@@]3(OS(=O)(=O)C=C3N)[C@H]2O[Si](C)(C)C(C)(C)C)c1=O
condition not met
